target-system: T1, SARS-CoV-2 RBD-mFc (SARS-CoV-2, UniProt P0DTC2 319-541)
T1 construct: range 319-541
assay-notes: Octet QKe BLI, 1:1 global fit
measured-endpoint: kon
Output should be the measured figure followed by the unit it is expressed in.

Read off the recorded kon for SA4079 (antibody, V domains shown) VH: QMQLVESGGGVVQPGGSLRLSCAASGFTFDDHTMHWVRQAPGKGLEWVSLISWDGGSTYYADSVKGRFTISRDNSKNSLYLQMNSLRAEDTAVYYCTRDASRRPGDGGYDFDVWGQGTQVTVSS VL: QAVVTQEPSLTVSPGGTATLTCGSSTGTVTRGHWPYWFQQKPGQAPRTLIYDTDTKHSWTPARFSGSLLGGKAALTLSGAQPEDEADYYCLLSYSDSRVFGTGTKVTVL
373000 M⁻¹ s⁻¹

Read off the recorded kon for SA4114 (antibody, V domains shown) VH: QVQLVESGGTLVQPGRSLRLSCAASGFTFSSYAMHWVRQAPGKGLEWVAVISYDGSNKYYADSVKGRFTISRDNSKNTLYLQMNSLRAEDTAVYYCARRGHYYDSSGFLYWGQGTLVTVSS VL: DIQMTQSPSSLSASVGDRVTITCRAGQSIDNYLNWYQQKPGKAPKLLIYAASTLHSGVPSRFSGSGSGTDFTLTISSLQPDDFATYYCQQSYSIPRTFGQGTKLEIK
433000 M⁻¹ s⁻¹

Read off the recorded kon for SA4118 (antibody, V domains shown) VH: QVQLVESGAEVKKPGASVRVSCKISGYIFTELSIHWVRQAPGKGLEWMGGFDPEEGKTIYAQKFQGRVTMTEDTSTDTAYMELSSLRSEDTAVYYCAKIGHLGDFWYWGQGTLITVSS VL: QSALTQPASVSGSPGQSITISCTGTTSDIGSYDYVSWYQQHPGKAPKLIIYGVTRRPSGVSNRFSGSKSGNTASLTISGLQAEDEANYYCSSCTRSSTYVFGTGTKVTVL
695000 M⁻¹ s⁻¹

Read off the recorded kon for SA4086 (antibody, V domains shown) VH: QVQLVESGGGVVQPGRSLRLSCAASGFTFSSYAMHWVRQAPGKGLEWVAVISYDGSNKYYADSAKGRFTISRDNSKNTLYLQMNSLRAEDTAVYYCARRGHYYDSSGYLYWGHGTLITVSS VL: DIQMTQSPSSLSASVGDRVTITCRASQSISTYLSWYQQKPGKAPKLLIYAASNLQSGVPSRFSASGSGTDFTLTISSLQPEDFATYYCQQSYNTPRTFGQGTKVEIK
471000 M⁻¹ s⁻¹
